Test system: CCRF-CEM leukemia
protocol.details: NCI-60 one-dose screen, 48 h (100 = growth as untreated, 0 = no growth, -100 = all killed)
test.settings: 10 µM unless noted
Experimental: Growth inhibition of the CCRF-CEM human tumor cell line is measured as a screen for anti-cancer activity. Cells are grown in 96 well plates and exposed to the test compound for 48 hours. Compounds are tested at a single concentration, which is 10^-5 M for most compounds. The reported endpoint is percent growth (GI% or GIPRCNT), where numbers from 0 - 100% represent growth inhibition, and numbers from -100% - 0 represent cell death. For example, a value of 40 represents 60% growth inhibition. […]
About 83,000 compounds went through this panel and 20% of them were active in at least one assay; those are over-represented in the sample as a whole.
Recorded growth by entry
Give the value in % but do not write % after it.

- COc1ccc(C2NC(=O)c3cc4c(cc3N2)OCO4)cc1 (stereo unspecified): 14.8

Now take the following molecule into account.
## Task Please look at COc1cc(C2CC(c3ccc(C)cc3)=NN2C=O)ccc1Oc1ccnc2cc(Cl)ccc12 (stereo unspecified) and tell me its recorded growth on CCRF-CEM leukemia.
## Result 82.8

----------
Recorded growth by entry
System: ACHN renal
protocol.details: NCI-60 one-dose screen, 48 h (100 = growth as untreated, 0 = no growth, -100 = all killed)
test.settings: 10 µM unless noted
Procedure: Growth inhibition of the ACHN human tumor cell line is measured as a screen for anti-cancer activity. Cells are grown in 96 well plates and exposed to the test compound for 48 hours. Compounds are tested at a single concentration, which is 10^-5 M for most compounds. The reported endpoint is percent growth (GI% or GIPRCNT), where numbers from 0 - 100% represent growth inhibition, and numbers from -100% - 0 represent cell death. For example, a value of 40 represents 60% growth inhibition. […]
About 83,000 compounds went through this panel and 20% of them were active in at least one assay; those are over-represented in the sample as a whole.
Give the value in % but do not write % after it.

Take a look at these entries with their results.
- N/C(=N\OC(=O)c1ccccc1)C(C(=O)NOC(=O)c1ccccc1)C1CCCCC1 (stereo not drawn): 25.6
- COc1cc(C2CC(c3ccc(C)cc3)=NN2C=O)ccc1Oc1ccnc2cc(Cl)ccc12 (stereo not drawn): 48.3

## Task Consider the compound COc1ccc(-c2cc(C(=O)Nc3ccc(C)cc3)nc3[nH]c(=O)sc23)cc1 . State its measured growth.
## Result 90.2

----------
Recorded growth by entry
Tested on: OVCAR-4 ovarian
protocol.details: NCI-60 one-dose screen, 48 h (100 = growth as untreated, 0 = no growth, -100 = all killed)
test.settings: 10 µM unless noted
Description: Growth inhibition of the OVCAR-4 human tumor cell line is measured as a screen for anti-cancer activity. Cells are grown in 96 well plates and exposed to the test compound for 48 hours. Compounds are tested at a single concentration, which is 10^-5 M for most compounds. The reported endpoint is percent growth (GI% or GIPRCNT), where numbers from 0 - 100% represent growth inhibition, and numbers from -100% - 0 represent cell death. For example, a value of 40 represents 60% growth inhibition. […]
The panel holds about 83,000 compounds, 20% with a hit somewhere; the sample as a whole holds those more often.
Give the value in % but do not write % after it.

* CC(C)(C)OC[C@@H]1N=C(c2ccc(Br)cc2)Nc2nc3ccccn3c2C1=O | 82.3
* CS(=O)(=O)c1ccc(Cl)c([N+](=O)[O-])c1 | 111
* COc1cccc(/C(C)=N/NC(=O)CSc2nc3ccccc3c(=O)n2CCc2ccc(S(N)(=O)=O)cc2)c1 | -7.35
* CC1OC(n2c3ccccc3c3c4c(c5c6ccccc6[nH]c5c32)C(=O)N(CCN2CCOCC2)C4=O)CC(O)C1O (centres undefined) | 46.5
* Fc1ccc(-c2cnc3nonc3n2)c(F)c1 | 93.3

## Task Consider the molecule COc1cc(C2CC(c3ccc(C)cc3)=NN2C=O)ccc1Oc1ccnc2cc(Cl)ccc12 (centres undefined) . State its measured growth.
## Result 95.8

## Task Consider the molecule COc1ccc2[nH]cc(C3(c4c[nH]c5ccc(OC)cc45)C(=O)Nc4ccc(F)cc43)c2c1 . State its measured growth.
## Result 86.7

## Task Consider the molecule Clc1nnc2c3ccccc3ccn12 . State its measured growth.
## Result 111

## Task Consider the molecule CCN(CC)c1ccc(/C=C2/NC(=O)NC2=O)cc1 . State its measured growth.
## Result 77
